pIC50: −log10 of the molar value.
Form: system (Bovine lysyl oxidase (LOX) (Bos taurus, UniProt P33072)), quantity (pIC50), values below.

API: value(readout= pIC50, system= Bovine lysyl oxidase (LOX) (Bos taurus, UniProt P33072), query= NCc1cccc(S(=O)(=O)N2C[C@@H](C(=O)N3CCS(=O)(=O)CC3)C[C@@H](c3ccccc3)C2)c1 (racemic) [Example 77, 2,2,2-trifluoroacetate] )
< 4.52

----------
test-details: Permeability study in Caco-2 cell line
Assay type: in vitro ADME
conditions-used: human; Caco-2, apical to basolateral, 5 μM, 2 hours, pH 7.4
measured-metric: Papp A→B at 2 h, 5 μM (×10⁻⁶ cm/s)

Here is how some molecules turned out for Papp A→B at 2 h, 5 μM.
• CS(=O)(=O)N1CCN(C(=O)[C@H]2C[C@@H](c3ccccc3F)CN(S(=O)(=O)c3ccc(CN)s3)C2)CC1.O=C(O)C(F)(F)F (racemic) [Example 91] = 0.11
• CS(=O)(=O)[C@H]1C[C@@H](S(=O)(=O)c2cccc(CN)c2)CN(c2ccccc2)C1 (racemic) [Example 23] = 0.38

1 = NCc1ccc(S(=O)(=O)N2C[C@H](C(=O)N3CCS(=O)(=O)CC3)C[C@@H](c3ccccc3)C2)s1.O=C(O)C(F)(F)F (racemic) [Example 75B]
2 = NCc1ccc(S(=O)(=O)N2C[C@H](C(=O)N3CCOCC3)C[C@H](c3ccccc3)C2)s1 [Example 13B]
3 = CN(C)C(=O)N1C[C@@H](c2ccccc2)C[C@@H](S(=O)(=O)c2cccc(CN)c2)C1.O=C(O)C(F)(F)F (racemic) [Example 74]
List items by Papp A→B at 2 h, 5 μM in falling order. // rank by listing labels in the order requested
2, 3, 1

----------
test-details: Permeability study in Caco-2 cell line
Format: in vitro ADME
conditions-used: human, Caco-2, pH 7.4, Caco-2, apical to basolateral; read-out: Recovery (%)AP-BL
measured-metric: recovery at 2 h, 5 μM (%)

• CS(=O)(=O)[C@H]1C[C@@H](S(=O)(=O)c2cccc(CN)c2)CN(c2ccccc2)C1 (racemic) = 86.5
• CN(C)C(=O)N1C[C@@H](c2ccccc2)C[C@@H](S(=O)(=O)c2cccc(CN)c2)C1.O=C(O)C(F)(F)F (racemic) [Example 74, 2,2,2-trifluoroacetate] = 77.4
• NCc1ccc(S(=O)(=O)N2C[C@H](C(=O)N3CCS(=O)(=O)CC3)C[C@@H](c3ccccc3)C2)s1.O=C(O)C(F)(F)F (racemic) [Example 75B, 2,2,2-trifluoroacetate] = 72.1
• NCc1ccc(S(=O)(=O)N2C[C@H](C(=O)N3CCOCC3)C[C@H](c3ccccc3)C2)s1 [Example 13B] = 76.8
• CS(=O)(=O)N1CCN(C(=O)[C@H]2C[C@@H](c3ccccc3F)CN(S(=O)(=O)c3ccc(CN)s3)C2)CC1.O=C(O)C(F)(F)F (racemic) [Example 91, 2,2,2-trifluoroacetate] = 68.6

----------
subject-of-test: Bovine lysyl oxidase (LOX) (Bos taurus, UniProt P33072)
Construct: from tissue; host or cells: adult bovine tendon
Sequence (P33072 170-418): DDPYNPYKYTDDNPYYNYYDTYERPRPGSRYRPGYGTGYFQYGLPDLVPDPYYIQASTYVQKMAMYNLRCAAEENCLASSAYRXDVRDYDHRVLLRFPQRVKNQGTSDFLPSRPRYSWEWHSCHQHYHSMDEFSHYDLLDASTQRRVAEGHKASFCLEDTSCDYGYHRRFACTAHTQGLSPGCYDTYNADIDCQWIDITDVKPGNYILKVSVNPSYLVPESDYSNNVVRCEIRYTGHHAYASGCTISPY
test-details: LOX inhibition assay (fluorometric, cadaverine/Amplex Red/HRP)
Type: biochemical
conditions-used: IC50 class; bovine tendon LOX, cadaverine substrate; read-out: Activity Range LOX
Listing of recorded IC50 by entry.

* CS(=O)(=O)N1C[C@@H](Oc2cc(CN)ccc2F)C[C@H](c2ccccc2F)C1 (racemic) [Example 93, 2,2,2-trifluoroacetate] | > 30000 nM
* CS(=O)(=O)N1CCN(C(=O)[C@H]2C[C@@H](c3ccccc3)CN(S(=O)(=O)c3ccc(CN)s3)C2)CC1 (racemic) [Example 76, 2,2,2-trifluoroacetate] | ≤ 500 nM

Please examine the following record next.
Name the reported IC50 value associated with the compound NCc1ccc(S(=O)(=O)N2C[C@@H](C(=O)N3CCCCC3)C[C@@H](c3ccccc3)C2)s1 (racemic) [Example 11, 2,2,2-trifluoroacetate]
≤ 500 nM
